conditions: 298.15 K; 101 kPa; Liquid; Pycnometric method
Listing of recorded mass density by entry.
Property Name: mass density (kg/m3)

> print(dat)
                              compound  property.name  experimental.value
1     CC1COC(=O)O1 (centres undefined)   mass density             1197.58
2       COC(=O)OC [dimethyl carbonate]   mass density              1063.1
3  CC1OC(C)OC(C)O1 (centres undefined)   mass density              988.35
4      CCOC(=O)OCC [diethyl carbonate]   mass density              969.15

====

conditions: 298.15 K; 101 kPa; Liquid; Capillary tube (Ostwald / Ubbelohde) method
Property Name: viscosity (mPa·s)

> print(dat)
                              compound  units.text  experimental.value
1     CC1COC(=O)O1 (centres undefined)       mPa·s               2.499
2  CC1OC(C)OC(C)O1 (centres undefined)       mPa·s               1.107
3       COC(=O)OC [dimethyl carbonate]       mPa·s               0.579
4      CCOC(=O)OCC [diethyl carbonate]       mPa·s               0.749

====

conditions: 288.15 K; 101 kPa; Liquid; Capillary tube (Ostwald / Ubbelohde) method
Property Name: viscosity (mPa·s)

> print(dat)
                              compound  property.name  experimental.value
1     CC1COC(=O)O1 (centres undefined)      viscosity               3.086
2  CC1OC(C)OC(C)O1 (centres undefined)      viscosity               1.374
3      CCOC(=O)OCC [diethyl carbonate]      viscosity               0.868
4       COC(=O)OC [dimethyl carbonate]      viscosity               0.647

====

details: 288.15 K; 101 kPa; Liquid; Linear variable-path acoustic interferometer
± gives the expanded uncertainty stated by the source.
Property Name: speed of sound

> print(dat)
                                   compound   property.name  experimental.value
1  CC1COC(=O)O1 (centres undefined) [4-methyl-1,3-dioxolan-2-one]  speed of sound    1478.4 ± 2.8 m/s
2           CCOC(=O)OCC [diethyl carbonate]  speed of sound    1225.6 ± 2.7 m/s
3            COC(=O)OC [dimethyl carbonate]  speed of sound      1242 ± 2.7 m/s
4  CC1OC(C)OC(C)O1 (centres undefined) [2,4,6-trimethyl-1,3,5-trioxane]  speed of sound    1217.7 ± 2.7 m/s

====

Reported refractive index is given for each of the following compounds.
test: refractive index (Na D-line) (dimensionless); settings: 298.15 K; 101.33 kPa; Liquid; Standard Abbe refractometry
Property Name: refractive index

> print(dat)
                                   compound  experimental.value
1            COC(=O)OC [dimethyl carbonate]               1.366
2  CC1OC(C)OC(C)O1 (centres undefined) [2,4,6-trimethyl-1,3,5-trioxane]              1.4029
3  CC1COC(=O)O1 (centres undefined) [4-methyl-1,3-dioxolan-2-one]              1.4203
4           CCOC(=O)OCC [diethyl carbonate]               1.383
